Values from paper PMC7826789

# System: NEK9
# assay_context: Compound Concentration (nM):1000;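 note: KINOMEscan scanMAX binding as percent activity remaining versus control; lower means stronger binding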
experimental_endpoint: Percent Control (%)

# compound, value_reported
rows = [
    ("COc1ccc(COc2ccc(Cc3cnc(N)nc3N)cc2OC)cc1 [GW632580X]", 85),
    ("COc1ccc2c(-c3ccnc(Nc4cccc(OC(F)(F)F)c4)n3)cnn2n1 [GW810372X]", 47),
    ("COc1cc(/C=N/Nc2ncnc3[nH]ncc23)ccc1O [GW578748X]", 100),
    ("CN(C)c1cc2c(Nc3ccc4c(cnn4Cc4ccccc4)c3)ncnc2cn1 [GW282974X]", 88),
    ("COc1ccc2[nH]c3c4[nH]c5ccc(OC)cc5c4c4c(c3c2c1)C(=O)NC4=O [GW296115X]", 100),
]

====

# Tested on: ABL1(H396P)-phosphorylated
# assay_context: Compound Concentration (nM):1000
Binarize Percent Control at 80%; below is 1, at or above is 0.

# compound, cat
records = [
    ("COC(=O)Nc1nc2ccc(Oc3ccc(NC(=O)Nc4cc(C(F)(F)F)ccc4F)cc3)cc2s1.Cl [GW693917A]", 1),
    ("COc1ccccc1-c1cc(/C=C2\\C(=O)Nc3ncc(Br)cc32)cc(Br)c1O [GW442130X]", 0),
    ("CN(C)c1cc2c(Nc3ccc4c(cnn4Cc4ccccc4)c3)ncnc2cn1 [GW282974X]", 1),
    ("Cl.O=C(Nc1ccc(Oc2ccc3[nH]c(NC(=O)c4ccccc4)nc3c2)cc1)Nc1cc(C(F)(F)F)ccc1F [GW709042A]", 1),
    ("COc1cc(/C=N/Nc2ncnc3[nH]ncc23)ccc1O [GW578748X]", 1),
    ("COc1cccc(-n2ncc3c(N/N=C/c4ccncc4)ncnc32)c1 [GW784752X]", 1),
    ("NS(=O)(=O)c1ccc(N/N=C2\\C(=O)Nc3ccc(-c4cnco4)cc32)cc1", 0),
    ("CCn1c(-c2nonc2N)nc2c(C#CC(C)(C)O)nc(OCCNC)cc21.Cl", 0),
    ("NS(=O)(=O)c1ccc(Nc2ncc(-c3ccccc3)o2)cc1 [GW572399X]", 0),
    ("Cl.c1ccc(Cc2nc3ccc(Nc4ncnc5ccccc45)cc3[nH]2)cc1 [GR269666A]", 0),
    ("Cl.O=S1CCN(Cc2ccc(-c3ccc4ncnc(Nc5ccc(OCc6ccccc6)c(F)c5)c4c3)o2)CC1 [GW576924A]", 0),
    ("COc1cc(C=NNc2ncnc3c2cnn3-c2ccccc2)ccc1O [GW513184X]", 1),
    ("CCc1ccc(Oc2nccc(-c3c(-c4ccc(F)cc4)ncn3C3CCNCC3)n2)cc1", 1),
    ("O=C1Nc2ccc(C(=O)c3ccco3)cc2C1=Cc1cc(Cl)c(O)c(Cl)c1 [GW406108X]", 0),
    ("Cl.O=C(Nc1ccc(Oc2ccc3[nH]c(NC(=O)c4ccco4)nc3c2)cc1)Nc1cc(C(F)(F)F)ccc1F [GW683134A]", 1),
    ("CC1=C(C(=O)Nc2ccc3[nH]ncc3c2)C(c2ccc3ccccc3c2)CC(=O)N1 (stereo not shown) [GSK270822A]", 0),
    ("CN1CCN(C(=O)c2ccc(NC(=O)Nc3ccc(N(C)c4ccnc(Nc5ccc(CS(C)(=O)=O)cc5)n4)cc3)cc2)CC1.Cl [GW830263A]", 1),
    ("NS(=O)(=O)c1ccc(N/N=C2\\C(=O)Nc3ccc(C(=O)NCCc4c[nH]cn4)cc32)cc1 [GW300660X]", 0),
    ("NS(=O)(=O)c1ccc(N/N=C2\\C(=O)Nc3ccc(Cl)cc32)cc1 [GW280670X]", 0),
    ("O=C(Nc1n[nH]c2nc(-c3ccc(O)cc3)c(Br)cc12)C1CC1", 1),
    ("CCS(=O)(=O)c1ccc(OC)c(Nc2ncc(-c3cccc(OC)c3)o2)c1 [GW580509X]", 1),
    ("Cc1cc(O)cc(C)c1/C=C/c1cncc(C(N)=O)c1 [GW435821X]", 1),
    ("COc1ccc(COc2ccc(Cc3cnc(N)nc3N)cc2OC)cc1 [GW632580X]", 0),
]
